Experimental system: cynomolgus PAI-1 (cynomolgus, UniProt P05121 24-402 (human entry), limits assumed)
Protocol: cell-based or functional assay
Form field: Chromogenic (IC50 in nM) cyno (one value per entry).
Output spec: scalar in nM, unitless text.

For orientation, consider the following solved cases.
[[record]]
binder = "Antibody 05 scFv (scFv) QVQLQQSGAEVKKPGSSVKVSCKASGGTFSSYAISWVRQAPGQGLEWMGGIIPTFSTANYAQKFRGRVTITADESTSTAYMELSGLRSEDTAVYYCAREKRQWLEGHFDYWGRGTPVTVSSDIQMTQSPSFLSASIGDRVTITCRASEGIYHQLAWYQQKPGKAPKLLIYRASSLASGAPSRFSGSGSGTDFTLTISSLQPDDFATYYCQQYSNYPLTFGGGTKLEIK"
value_measured = 0.5

[[record]]
binder = "Antibody 17 scFv (scFv) QVQLQQSGAEVKKPGSSVKVSCKASGGTFSSYAISWVRQAPGQGLEWMGGIIPTFGTANYAQKFQGRVTITADESTSTAYMELSGLRSEDTAVYYCAREKRQWLEGHFDYWGRGTPVTVSSDIQMTQSPSFLSASIGDRVTITCRASEGIYHELAWYQQKPGKAPKLLIYRASSLASGAPSRFSGSGSGTDFTLTISSLQPDDFATYYCQQYSNYPLTFGGGTKLEIK"
value_measured = 41.5

[[record]]
binder = "Antibody 14 scFv (scFv) QVQLQQSGAEVKKPGSSVKVSCKASGGTFSSYAISWVRQAPGQGLEWMGGIIPTFGTANYAQKFQGRVTITADESTSTAYMELSGLRSEDTAVYYCAREKRQWLEGHFDYWGRGTLVTVSSDIQMTQSPSFLSASIGDRVTITCRASEGIYHNLAWYQQKPGKAPKLLIYRASSLASGAPSRFSGSGSGTDFTFTISSLQPDDFATYYCQQYSNYPLTFGGGTKLEIK"
value_measured = 0.8


Incoming: Entry Antibody 10 scFv (scFv) QVQLQQSGAEVKKPGSSVKVSCKASGGTFSSYAISWVRQAPGQGLEWMGGIIPTFGTANYAQKFQGRVTITADESTSTAYMELSSLRSEDTAVYYCAREKRQWLEGHFDYWGRGTPVTVSSDIQMTQSPSFLSASIGDRVAITCRASEGIYHSLAWYQQKPGKAPKLLIYRASSLASGAPSRFSGSGSGTDFTLTISSLQPDDFATYYCQQYSNYPLTFGGGTRLEIK : reported Chromogenic (IC50 in nM) cyno = ?
Outgoing: 0.5

Incoming: Entry Antibody 01 scFv (scFv) QVQLVQSGAEVKKPGSSVKVSCKASGGTFSSYAISWVRQAPGQGLEWMGGIIPIFGTANYAQKFQGRVTITADESTSTAYMELSSLRSEDTAVYYCAREKRQWLEGHFDYWGRGTLVTVSSDIQMTQSPSTLSASVGDRVTITCRASEGIYRSLAWYQQKPGKAPKLLIYKASSLASGVPSRFSGSGSGTEFTLTISSLQPDDFATYYCQQYSNYPLTFGGGTKVEIK : reported Chromogenic (IC50 in nM) cyno = ?
Outgoing: 1.2

Incoming: Entry Antibody 20 scFv (scFv) QVQLQQSGAEVKKPGSSVKVSCKASGGTFSSYAISWVRQAPGQGLEWMGGIIPTFGTANYAQKFQGRVTITADESTSTAYMELSSLRSEDTAVYYCAREKRQWLEGHFDYWGRGTLVTVSSDIQMTQSPSTLSASVGDRVTITCRASEGIYHELAWYQQKPGKAPKLLIYRASSLASGVPSRFSGSRSGTEFTLTISSLQPDDFATYYCQQYSDYPLTFGGGTKVEIK : reported Chromogenic (IC50 in nM) cyno = ?
Outgoing: 1.3

Incoming: Entry Antibody 26 scFv (scFv) QVQLQQSGAEVKKPGTSVKVSCKASGGTFSSYAISWVRQAPGQGLEWMGGIIPIFGTANYAQKFQGRVTITADESTSTAYMELSSLRSEDTAVYYCAREKRQWLEGHFDYWGRGTPVTVSSDIQMTQSPSFLSASIGDRVTITCRASEGIYHTLAWYQQKPGKAPKLLIYRASSLASGAPSRFSGSGSGTDFTLTISSLQPDDFATYYCQQYSNYPLTFGGGTKLEIK : reported Chromogenic (IC50 in nM) cyno = ?
Outgoing: 1.2

Incoming: Entry Antibody 23 scFv (scFv) QVQLQQSGAEVKKPGSSVKVSCKASGGTFSSYAISWVRQAPGQGLEWMGGIIPTFGTANYAQKFQSRVTITADESTSTAYMELSGLRSEDTAVYYCAREKRQWLEGHFDYWGRGTPVTVSSDIQMTQSPSFLSASIGDRVTITCRASEGIYHSLAWYQQKPGKAPKLLIYRASSLASGAPSRFSGSGSGTDFTLTISSLQPDDFATYYCQQYSNYPLTFGGGTKLEIK : reported Chromogenic (IC50 in nM) cyno = ?
Outgoing: 0.5

Incoming: Entry Antibody 06 scFv (scFv) QVQLQQSGAEVKKPGSSVKVSCKASGGTFSSYAISWVRQAPGQGLEWMGGIIPTFGTANYAQKFQGRVTITADESTSTAYMELSGLRSEDTAVYYCAREKRQWLEGHFDYWGRGTPVTVSSDIQMTQSPSFLSASIGDRVTITCRASEGIYHELAWYQQKPGKAPKLLIYRASSLASGAPSRFSGSGSGTDFTLTISSLQPDDFATYYCQQYSNYPLTFGRGTKLEIK : reported Chromogenic (IC50 in nM) cyno = ?
Outgoing: 31.6

Incoming: Entry Antibody 13 scFv (scFv) QVQLQQSGAEVKKPGSSVKVSCKASGGTFSSYAISWVRQAPGQGLEWMGGIIPTFGTANYAQKFQGRVTITADESTSTAYMELSDLRSEDTAVYYCAREKRQWLEGHFDYWGRGTPVTVSSDIQMTQSPSFLSASIGDRVTITCRASEGIYHSLAWYQQKPGKAPKLLIYRASSLASGAPSRFSGSGSGTDFTLTISSLQPDDFATYYCQQYSNYPLTFGGGTKLEIK : reported Chromogenic (IC50 in nM) cyno = ?
Outgoing: 1.2

Incoming: Entry Antibody 19 scFv (scFv) QVQLQQSGAEVKKPGSSVKVSCKASGGTFSSYAISWVRQAPGQGLEWMGGIIPIFDTANYAQKFQGRVTITADESTSTAYMELSGLRSEDTAVYYCARERRQWLEGHFDYWGRGTPVTVSSDIRMTQSPSFLSASIGDRVTITCRASEGIYHELAWYQQKPGKAPKLLIYRASSLASGAPSRFSGSGSGTEFTLTISSLQPDDFATYYCQQYSNYPLTFGGGTKLEIK : reported Chromogenic (IC50 in nM) cyno = ?
Outgoing: 10.8
